target: Glutamate NMDA receptor; assay: Inhibition of N-methyl-D-aspartate glutamate receptor (NMDA receptor) from homogenized rat brain membrane, using [3H]-MK-801 as a radioligand
pKi: −log10 of the molar value.
Output Fulfilled for pKi not less than 7; output Not fulfilled otherwise.

1) CC12NC(Cc3ccc(Br)cc31)c1ccccc12 (single isomer, unassigned; (+)): Fulfilled
2) CN1C2Cc3ccccc3C1c1ccccc12 (configuration not stated): Not fulfilled
3) CC12NC(c3ccccc31)[C@@H](O)c1ccccc12 (single isomer, unassigned; (-)): Not fulfilled
4) OCCC12NC(Cl)(Cc3ccccc31)c1ccccc12 (configuration not stated): Not fulfilled

Textbook exercise: given the entry "c1ccc2c(c1)CC1Cc3ccccc3C2N1" , state whether its pKi is greater than or equal to 7.
Not fulfilled

====

biological target: Glutamate NMDA receptor; test: Inhibition of N-methyl-D-aspartate glutamate receptor (NMDA receptor) from homogenized rat brain membrane, using [3H]-MK-801 as a radioligand
experimentalEndpoint: pKi
Note on units: pKi is unitless, being -log10 of a concentration expressed in mol/L.

Here's what some known entries look like.
1) COc1ccc2c(c1)C1(C)NC2Cc2ccccc21 (single isomer, unassigned; (+)): 7.60
2) CC12NC(Cc3ccccc31)c1ccc(Cl)cc12 (single isomer, unassigned; (+)): 8.22

What measured pKi is associated with CC12NC(Cc3ccccc31)c1cc(O)ccc12 (stereo in doubt; 106) on Glutamate NMDA receptor?
7.31

What measured pKi is associated with CC12NC(c3ccccc31)[C@@H](O)c1ccccc12 (stereo in doubt; 120) on Glutamate NMDA receptor?
6.68

====

target: Glutamate NMDA receptor (Rattus norvegicus) (UniProt P35439+Q00959+Q00960+Q00961+Q62645+Q8VHN2+Q9R1M7); test: Antagonistic activity against N-methyl-D-aspartate glutamate receptor from rat cortical slice; assay type: functional
// reported Kb per item
Note: unit nM is implicit; provide only the numeric part.

Here's what some known entries look like.
1) O[C@@H]1c2ccccc2C2NC1c1ccccc12 (some centres not stated): 9600
2) CC12NC(Cc3ccc(F)cc31)c1ccccc12 (configuration not stated): 380
3) CC12NC(O)(Cc3ccccc31)c1ccccc12 (configuration not stated): 660
4) CC12NC(Cc3ccc(F)cc31)c1ccc(F)cc12 (configuration not stated): 320

Fill blank: measured Kb of the compound CC12NC(Cc3ccccc31)c1cc(O)ccc12 (stereo in doubt; 106) is ____.
240

Fill blank: measured Kb of the compound CCC12NC(Cc3ccccc31)c1ccccc12 (configuration not stated) is ____.
590

Fill blank: measured Kb of the compound CC12NC(Cc3ccccc31)c1ccc(Br)cc12 (configuration not stated) is ____.
460

====

// reported Kb per item
target: Glutamate NMDA receptor (Rattus norvegicus) (UniProt P35439+Q00959+Q00960+Q00961+Q62645+Q8VHN2+Q9R1M7); experiment: Antagonistic activity against N-methyl-D-aspartate glutamate receptor from rat cortical slice; assay type: functional
Note: unit nM is implicit; provide only the numeric part.

Here's what some known entries look like.
1) CC12NC(c3ccccc31)[C@@H](O)c1ccccc12 (stereo in doubt; 120): 280
2) FCCC12NC(Cc3ccccc31)c1ccccc12 (stereo unspecified): 230
3) CC12NC(Cc3ccc(Br)cc31)c1ccccc12 (stereo in doubt; 88): 900
4) C=CC12NC(Cc3ccccc31)c1ccccc12 (stereo unspecified): 320
5) CC12NC(Cc3ccccc31)c1cc(O)ccc12 (stereo in doubt; (+)-106): 140
6) CC12NC(Cc3ccc(Cl)cc31)c1ccccc12 (single isomer, unassigned; (-)): 560
7) COc1ccc2c(c1)C1Cc3ccccc3C2(C)N1 (stereo unspecified): 130
8) Cc1ccc2c(c1)C1(C)NC(C2)c2ccccc21 (stereo unspecified): 380
9) CCC12NC(Cc3ccccc31)Cc1ccccc12: 290
10) CC12NC(Cc3ccc(Cl)cc31)c1ccccc12 (stereo in doubt; 64): 67

Now consider the entry below.
Fill blank: measured Kb of the compound CC12NC(Cc3ccccc31)c1ccc(Cl)cc12 (stereo in doubt; (-)-63) is ____.
560

====

target: Glutamate NMDA receptor; assay: Inhibition of N-methyl-D-aspartate glutamate receptor (NMDA receptor) from homogenized rat brain membrane, using [3H]-MK-801 as a radioligand
pKi: −log10 of the molar value.
Output satisfied for pKi not less than 6; output not satisfied otherwise.

1. CC12NC(Cc3ccc(I)cc31)c1ccccc12 (centres undefined): satisfied
2. COc1ccc2c(c1)C1(C)NC2Cc2ccccc21 (stereo in doubt; (-)-83): satisfied
3. OCC12NC(Cc3ccccc31)c1ccccc12 (centres undefined): satisfied
4. CN1C2Cc3ccccc3C1(C)c1ccccc12 (centres undefined): satisfied
5. CN1C2Cc3ccccc3C1c1ccccc1C2: not satisfied

Textbook exercise: given the entry O=C(O)CC12NC(O)(Cc3ccccc31)c1ccccc12 (centres undefined) , state whether its pKi is greater than or equal to 6.
not satisfied

Textbook exercise: given the entry CCOC(=O)C(O)[C@]12NC(Cc3ccccc31)c1ccccc12 (some centres undefined) , state whether its pKi is greater than or equal to 6.
satisfied

Textbook exercise: given the entry O=C(O)CC12NC(Cl)(Cc3ccccc31)c1ccccc12 (centres undefined) , state whether its pKi is greater than or equal to 6.
not satisfied

Textbook exercise: given the entry CC12NC(Cc3ccc(Cl)cc31)c1ccccc12 (stereo in doubt; 64) , state whether its pKi is greater than or equal to 6.
satisfied

====

biological target: Glutamate NMDA receptor; test: Inhibition of N-methyl-D-aspartate glutamate receptor (NMDA receptor) from homogenized rat brain membrane, using [3H]-MK-801 as a radioligand
// reported pKi per item
Note on units: pKi is unitless, being -log10 of a concentration expressed in mol/L.

Here's what some known entries look like.
1. CC12NC(Cc3ccccc31)c1ccc(Cl)cc12 (stereo in doubt; (-)-63): 6.52
2. C=CC12NC(Cc3ccccc31)c1ccccc12 (configuration not stated): 7.06
3. CC12NC(Cc3ccc(SC(F)(F)F)cc31)c1ccccc12 (configuration not stated): 4.77

Now consider the entry below.
What measured pKi is associated with "CN1C2(C)Cc3ccccc3C1(C)c1ccccc1C2" on Glutamate NMDA receptor?
5.06

====

// reported Ki per item
molecular target: Glutamate NMDA receptor; test: Inhibition of N-methyl-D-aspartate glutamate receptor (NMDA receptor) from homogenized rat brain membrane, using [3H]-MK-801 as a radioligand
Note: unit µM is implicit; provide only the numeric part.

Here's what some known entries look like.
1) CCOC(=O)CC12NC(Cc3ccccc31)c1ccccc12 (stereo unspecified): 0.55
2) FCC12NC(Cc3ccccc31)c1ccccc12 (stereo unspecified): 0.16
3) OC12NC(Cc3ccccc31)Cc1ccccc12: 57
4) COc1ccc2c(c1)CC1NC2(C)c2ccccc21 (stereo unspecified): 0.61
5) CC12NC(Cc3ccc(N)cc31)c1ccccc12 (stereo unspecified): 0.027

Fill blank: measured Ki of the compound CC12NC(Cc3ccccc31)c1cc(O)ccc12 (single isomer, unassigned; (-)) is ____.
0.761

Fill blank: measured Ki of the compound ClCCC12NC(Cl)(Cc3ccccc31)c1ccccc12 (stereo unspecified) is ____.
53

Fill blank: measured Ki of the compound CC12NC(Cc3ccccc31)c1cc(O)ccc12 (stereo in doubt; (+)-106) is ____.
0.023

====

molecular target: Glutamate NMDA receptor (Rattus norvegicus) (UniProt P35439+Q00959+Q00960+Q00961+Q62645+Q8VHN2+Q9R1M7); test: Antagonistic activity against N-methyl-D-aspartate glutamate receptor from rat cortical slice; assay type: functional
experimentalEndpoint: Kb

Here's what some known entries look like.
1. FCC12NC(Cc3ccccc31)c1ccccc12 (stereo not given): 720 nM
2. C[C@]12N[C@H](Cc3ccccc31)Cc1ccccc12: 310 nM
3. OCCC12NC(O)(Cc3ccccc31)c1ccccc12 (stereo not given): 2100 nM
4. CC12NC(Cc3ccccc31)Cc1ccc(Cl)cc12 (stereo not given): 680 nM
5. CC12NC(c3ccccc31)[C@@H](O)c1ccccc12 (stereo in doubt; (+)120): 250 nM

Fill blank: measured Kb of the compound CC12NC(Cc3ccccc31)c1ccc(Cl)cc12 (single isomer, unassigned; (+)) is ____.
80 nM

Fill blank: measured Kb of the compound CC12NC(Cc3ccc(Br)cc31)c1ccccc12 (single isomer, unassigned; (+)) is ____.
500 nM

Fill blank: measured Kb of the compound COc1ccc2c(c1)C1(C)NC2Cc2ccccc21 (stereo in doubt; 83) is ____.
230 nM

Fill blank: measured Kb of the compound CC12c3ccccc3CC(c3ccccc31)N2O (stereo not given) is ____.
45600 nM

Fill blank: measured Kb of the compound O[C@H]1c2ccccc2C2NC1c1ccccc12 (stereo not given in full) is ____.
2790 nM
